Where do the numbers come from? From PubChem BioAssay (NCI).

Test system: HOP-62 NSCLC
Assay: NCI-60 one-dose screen, 48 h (100 = growth as untreated, 0 = no growth, -100 = all killed)
Settings: 10 µM unless noted
About 83,000 compounds went through this panel and 20% of them were active in at least one assay; those are over-represented in the sample as a whole.
The entries below come with measured growth values attached.
Give the number; % is assumed, so skip it.

Answered cases to consult:
compound	reported.endpoint	val
Cc1nn(-c2nc3ccccc3[nH]2)c2c1C(c1ccc(O)cc1)CC(=O)N2 (centres undefined)	growth	93.1
CNC(=O)c1cc(COc2nnc(Nc3ccc(Cl)cc3)c3ccoc23)ccn1	growth	-75.2
COc1ccc2c(CCCc3ccc(Cl)cc3Cl)c3[n+](cc2c1OC)CCc1cc2c(cc1-3)OCO2	growth	13.8
Cc1c(N)ccc(-c2ccc(N)c(C)c2S(=O)(=O)O)c1S(=O)(=O)O	growth	107
COc1cc(-c2cc(-c3ccc(Nc4ccnc5cc(Cl)ccc45)cc3)nc(N3CCOCC3)n2)cc(OC)c1OC	growth	-39.1
CCC1(/C=N/NC(N)=S)NC(=O)NC1=O (centres undefined)	growth	78.8
CC(C)Nc1cc(-c2c[nH]c(C(=O)N[C@H](CO)c3cccc(Cl)c3)c2)c(Cl)cn1	growth	28.6
c1cc[n+](Cc2c3ccccc3cc3c2ccc2ccccc23)cc1	growth	23.7

Now examine the next entry.
Entry "C[C@@H](Oc1cc(-n2cnc3ccc(CN4CCN(C)CC4)cc32)sc1C(N)=O)c1ccccc1C(F)(F)F" ; growth = 4.73

###

Item-by-item account of growth
Test system: SF-539 CNS
Test: NCI-60 one-dose screen, 48 h (100 = growth as untreated, 0 = no growth, -100 = all killed)
Conditions: 10 µM unless noted
The panel holds about 83,000 compounds, 20% with a hit somewhere; the sample as a whole holds those more often.
Field format: number, assumed %, no unit text.

Worked cases, growth given:
compound.structure	value.units	val
O=S1(=O)OC(c2ccc(O)c(Cl)c2)(c2ccc(O)c(Cl)c2)c2ccccc21	%	93.3
CN1CCN(Cc2ccc(NC(=O)c3[nH]ncc3Nc3ncnc4sc5c(c34)CCCC5)cc2)CC1	%	-100

Now for another entry.
Item: "CN(N)c1nc2sc3c(c2c(=O)[nH]1)CCCC3" | growth: 98.7

###

Test system: SW-620 colon
Assay: NCI-60 one-dose screen, 48 h (100 = growth as untreated, 0 = no growth, -100 = all killed)
Settings: 10 µM unless noted
This is part of a sample that, as a whole, favours compounds with a hit. Of some 83,000 tested, about 20% had one in any assay.
Exam item: assign fulfilled to entries whose growth is below 50% and not fulfilled to entries at or above 50%. Note that a value of exactly 50% receives not fulfilled.

Solved entries (count: 5):
molecule	category
CC(N)C(Cc1ccc(Cl)cc1)c1ccc(Cl)cc1 (stereo not drawn)	not fulfilled
COCCOc1cnc2ccn([C@H](C)c3nnc4c(F)cc(-c5cnn(C)c5)cn34)c(=O)c2c1	fulfilled
Cc1nc2cc(-c3nn(C(C)C)c4ncnc(N)c34)ccc2o1	fulfilled
CCCC(=O)OCC1OC(n2cnc3c(=S)nc(N)[nH]c32)C(OC(=O)CCC)C1OC(=O)CCC (stereo not drawn)	not fulfilled
COc1cc2c(cc1OCCCCCN1CCN(c3ncnc4ccccc34)CC1)N=CC1CCCN1C2=O (stereo not drawn)	fulfilled

Report whether reported growth is lower than 50% (strictly) for "COc1cc(Nc2c(C#N)cnc3cc(OCCCN4CCN(C)CC4)c(OC)cc23)c(Cl)cc1Cl"
fulfilled

# strict comparison: is reported growth < 50%? input = "CCN(CC)CCNC(=O)c1c(C)[nH]c(/C=C2\C(=O)Nc3ccc(F)cc32)c1C"
fulfilled

I wonder whether "CCOC(=O)c1sc(NC(=O)COc2ccc(/C=C3\Cc4ccc(Cl)cc4C3=O)cc2)nc1C" has growth below 50%. Can you tell?
not fulfilled

Record Cc1cccc(C)c1N1C(c2ccccc2)=NNC12C=CC(=O)c1c(O)cccc12 (stereo not drawn) : is its growth strictly below 50%?
not fulfilled

Threshold test, growth < 50%: "C/C=C/C=N/NC(=S)Nc1ccccc1"
not fulfilled

Item "Cn1cc(-c2[nH]c3cc(NC(=O)[C@H](N)C4CCCCC4)cc4c3c2C=NNC4=O)cn1" : growth beneath 50%, strictly?
fulfilled

Is 50% strictly greater than the molecule's reported growth? molecule: "CNC(=O)c1cnc(C)nc1-c1cc(C(C)(C)C)c(O)c(C(C)(C)C)c1"
not fulfilled

Please let me know if "O=C(c1c(F)ccc(NS(=O)(=O)N2CC[C@@H](F)C2)c1F)c1c[nH]c2ncc(-c3cnc(C4CC4)nc3)cc12" shows growth below 50%.
not fulfilled
